Measured values drawn from patent US20120094998A1 for this set.

- tgt: ABL (Homo sapiens)
- Sequence (P00519 whole entry): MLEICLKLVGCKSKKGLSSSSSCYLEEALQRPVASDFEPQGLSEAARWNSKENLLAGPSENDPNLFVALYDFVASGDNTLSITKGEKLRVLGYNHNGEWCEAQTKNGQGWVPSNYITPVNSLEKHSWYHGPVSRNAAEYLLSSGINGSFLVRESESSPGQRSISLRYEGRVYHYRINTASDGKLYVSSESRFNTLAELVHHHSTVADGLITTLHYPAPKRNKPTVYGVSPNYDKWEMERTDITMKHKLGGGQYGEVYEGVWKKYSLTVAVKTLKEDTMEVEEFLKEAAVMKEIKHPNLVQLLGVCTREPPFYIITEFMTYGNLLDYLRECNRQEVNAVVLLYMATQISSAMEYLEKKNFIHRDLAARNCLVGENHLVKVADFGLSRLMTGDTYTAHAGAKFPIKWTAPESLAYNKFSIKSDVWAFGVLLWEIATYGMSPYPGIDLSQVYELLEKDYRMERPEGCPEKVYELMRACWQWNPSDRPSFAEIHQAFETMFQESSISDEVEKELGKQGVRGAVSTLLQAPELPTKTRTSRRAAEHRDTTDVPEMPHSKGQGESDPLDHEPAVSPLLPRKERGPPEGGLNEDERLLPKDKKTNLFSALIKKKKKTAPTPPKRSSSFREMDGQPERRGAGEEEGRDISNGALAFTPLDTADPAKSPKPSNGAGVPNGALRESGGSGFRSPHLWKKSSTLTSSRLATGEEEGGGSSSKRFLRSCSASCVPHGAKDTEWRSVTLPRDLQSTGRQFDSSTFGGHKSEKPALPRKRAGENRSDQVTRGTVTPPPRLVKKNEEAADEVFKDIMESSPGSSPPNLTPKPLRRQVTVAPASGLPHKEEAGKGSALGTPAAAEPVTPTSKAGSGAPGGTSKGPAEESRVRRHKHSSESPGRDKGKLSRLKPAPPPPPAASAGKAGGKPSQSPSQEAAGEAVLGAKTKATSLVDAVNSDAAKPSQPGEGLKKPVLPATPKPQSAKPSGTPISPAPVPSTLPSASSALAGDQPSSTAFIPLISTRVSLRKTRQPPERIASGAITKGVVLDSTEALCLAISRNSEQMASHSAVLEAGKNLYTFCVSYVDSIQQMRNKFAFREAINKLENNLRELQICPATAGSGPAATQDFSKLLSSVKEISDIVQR
- testSummary: Off-chip mobility-shift kinase assay (Caliper LABCHIP), ABL
- details: concentration 1.0E−10; dasatinib-corresponding compounds
measuredParameter: ABL AVG % Activity at 1.0E−10

compound	obsValue
COCCOCCOCCOCCOCCOCCOCCNC(=O)OCCN1CCN(c2cc(Nc3ncc(C(=O)Nc4c(C)cccc4Cl)s3)nc(C)n2)CC1 [mPEG7-NHCOO-Dasatinib]	80%
COCCOCCOCCOCCOCCNC(=O)OCCN1CCN(c2cc(Nc3ncc(C(=O)Nc4c(C)cccc4Cl)s3)nc(C)n2)CC1 [mPEG5-NHCOO-Dasatinib]	80%
COCCOCCOCCOCC(=O)NC(CC(C)C)C(=O)OCCN1CCN(c2cc(Nc3ncc(C(=O)Nc4c(C)cccc4Cl)s3)nc(C)n2)CC1 (centres unmarked) [mPEG3-Leu-Dasatinib]	85%
COCCOCCOCCOCCOCCOCCOCCOCCOCCNC(=O)OCCN1CCN(c2cc(Nc3ncc(C(=O)Nc4c(C)cccc4Cl)s3)nc(C)n2)CC1 [mPEG9-NHCOO-Dasatinib]	80%
COCCOCCOCCOCC(=O)NC(C(=O)OCCN1CCN(c2cc(Nc3ncc(C(=O)Nc4c(C)cccc4Cl)s3)nc(C)n2)CC1)C(C)C (centres unmarked) [mPEG3-Val-Dasatinib]	85%

====

Listing: ABL AVG % Activity at 1.0E−08 of selected compounds
- tgt: ABL (Homo sapiens)
- testSummary: Off-chip mobility-shift kinase assay (Caliper LABCHIP), ABL
- details: concentration 1.0E−08; imatinib-corresponding compounds

compound	ABL AVG % Activity at 1.0E−08, %
COCCOCCOCCOCCOCCNCc1ccc(C(=O)Nc2ccc(C)c(Nc3nccc(-c4cccnc4)n3)c2)cc1 [mPEG5-N-Imatinib]	95
COCCOCCOCCOCCOCCOCCOCCN1CCN(Cc2ccc(C(=O)Nc3ccc(C)c(Nc4nccc(-c5cccnc5)n4)c3)cc2)CC1 [mPEG7-N′-Imatinib]	92
COCCOCCOCCOCCOCCOCCOCCOCCOCCNCc1ccc(C(=O)Nc2ccc(C)c(Nc3nccc(-c4cccnc4)n3)c2)cc1 [mPEG9-N-Imatinib]	97
COCCOCCOCCOCCOCCOCCOCCNCc1ccc(C(=O)Nc2ccc(C)c(Nc3nccc(-c4cccnc4)n3)c2)cc1	94
COCCOCCOCCOCCOCCOCCOCCOCCOCCN1CCN(Cc2ccc(C(=O)Nc3ccc(C)c(Nc4nccc(-c5cccnc5)n4)c3)cc2)CC1 [mPEG9-N′-Imatinib]	93

====

- tgt: UniProt P10721
- Sequence (P10721 26-976): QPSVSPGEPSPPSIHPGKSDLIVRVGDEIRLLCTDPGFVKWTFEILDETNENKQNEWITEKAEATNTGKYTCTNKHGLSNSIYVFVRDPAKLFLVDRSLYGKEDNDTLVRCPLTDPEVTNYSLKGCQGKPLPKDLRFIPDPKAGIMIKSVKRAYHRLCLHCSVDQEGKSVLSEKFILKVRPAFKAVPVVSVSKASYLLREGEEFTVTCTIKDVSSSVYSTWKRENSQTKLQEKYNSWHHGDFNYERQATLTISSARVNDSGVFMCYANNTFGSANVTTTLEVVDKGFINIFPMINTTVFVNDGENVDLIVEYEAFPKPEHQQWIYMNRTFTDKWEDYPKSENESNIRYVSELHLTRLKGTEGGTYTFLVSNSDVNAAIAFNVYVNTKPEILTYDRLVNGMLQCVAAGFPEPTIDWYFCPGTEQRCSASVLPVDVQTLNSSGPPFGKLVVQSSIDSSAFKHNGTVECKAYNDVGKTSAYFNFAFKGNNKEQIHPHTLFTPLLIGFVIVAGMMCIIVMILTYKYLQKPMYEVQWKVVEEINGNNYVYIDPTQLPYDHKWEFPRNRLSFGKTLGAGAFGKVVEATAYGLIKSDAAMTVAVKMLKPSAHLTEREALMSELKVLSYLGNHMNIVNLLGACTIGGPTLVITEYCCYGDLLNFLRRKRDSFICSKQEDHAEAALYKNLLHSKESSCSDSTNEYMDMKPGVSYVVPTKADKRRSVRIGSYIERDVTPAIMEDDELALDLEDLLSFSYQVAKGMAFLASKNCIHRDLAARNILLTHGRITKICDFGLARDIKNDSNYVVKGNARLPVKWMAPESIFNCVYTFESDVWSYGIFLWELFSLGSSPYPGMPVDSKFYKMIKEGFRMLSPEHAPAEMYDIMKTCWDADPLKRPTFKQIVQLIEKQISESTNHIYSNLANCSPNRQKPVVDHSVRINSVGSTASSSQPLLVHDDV
- testSummary: Off-chip mobility-shift kinase assay (Caliper LABCHIP), C-kit
- details: concentration 3.0E−06
Parameter: C-kit AVG % Activity at 3.0E−06. Scope: all listed entries.

smiles	C-kit AVG % Activity at 3.0E−06
COCCOCCOCCOCCOCCOCCOCCN1CCN(Cc2ccc(C(=O)Nc3ccc(C)c(Nc4nccc(-c5cccnc5)n4)c3)cc2)CC1	44%
COCCOCCOCCOCCOCCNCc1ccc(C(=O)Nc2ccc(C)c(Nc3nccc(-c4cccnc4)n3)c2)cc1	9%
COCCOCCOCCOCCOCCOCCOCCNCc1ccc(C(=O)Nc2ccc(C)c(Nc3nccc(-c4cccnc4)n3)c2)cc1	23%
COCCOCCOCCOCCOCCOCCOCCOCCOCCNCc1ccc(C(=O)Nc2ccc(C)c(Nc3nccc(-c4cccnc4)n3)c2)cc1	32%
COCCOCCOCCOCCOCCOCCOCCOCCOCCN1CCN(Cc2ccc(C(=O)Nc3ccc(C)c(Nc4nccc(-c5cccnc5)n4)c3)cc2)CC1	12%
